# experimental-system: Env of HIV-1 strain YU2.DG (HIV-1)
# experiment-notes: cell-based or functional assay
readout: neutralization IC50 (µg/mL)

>>> readout_value("γ46κ11 (antibody, V domains shown) VH: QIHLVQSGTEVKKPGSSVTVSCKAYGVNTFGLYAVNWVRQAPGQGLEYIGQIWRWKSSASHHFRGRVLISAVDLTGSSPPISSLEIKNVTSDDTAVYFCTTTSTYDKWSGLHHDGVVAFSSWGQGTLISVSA VL: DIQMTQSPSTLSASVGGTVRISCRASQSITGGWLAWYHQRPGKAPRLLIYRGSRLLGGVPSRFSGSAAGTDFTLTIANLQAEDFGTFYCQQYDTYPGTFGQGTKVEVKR")
2.1
>>> readout_value("γ52κ18 (antibody, V domains shown) VH: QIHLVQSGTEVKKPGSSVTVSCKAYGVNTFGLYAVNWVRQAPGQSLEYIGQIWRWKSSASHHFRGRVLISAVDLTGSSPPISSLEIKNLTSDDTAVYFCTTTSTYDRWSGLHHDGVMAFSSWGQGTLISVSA VL: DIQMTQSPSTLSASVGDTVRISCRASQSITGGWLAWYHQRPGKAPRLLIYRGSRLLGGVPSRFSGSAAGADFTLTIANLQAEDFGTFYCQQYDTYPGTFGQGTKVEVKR")
0.265
>>> readout_value("γ8κ3 (antibody, V domains shown) VH: QIHLVQSGTGVKKPGSSVTVSCKAYGVNTFGLYAVNWVRQAPGQGLEYIGQIWRWKSSASHHFRGRVLISAVDLTGSSPPITSLEIKNVTSDDTAVYFCTTTSTYDKWSGLYHDGVMAFSSWGQGTLISVSA VL: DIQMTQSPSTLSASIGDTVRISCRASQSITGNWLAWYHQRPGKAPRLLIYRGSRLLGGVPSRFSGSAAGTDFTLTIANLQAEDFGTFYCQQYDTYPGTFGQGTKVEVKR")
5.41
>>> readout_value("γ3κ5 (antibody, V domains shown) VH: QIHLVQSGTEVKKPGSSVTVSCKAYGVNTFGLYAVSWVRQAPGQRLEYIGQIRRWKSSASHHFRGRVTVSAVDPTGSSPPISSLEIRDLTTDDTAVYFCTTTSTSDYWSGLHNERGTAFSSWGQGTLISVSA VL: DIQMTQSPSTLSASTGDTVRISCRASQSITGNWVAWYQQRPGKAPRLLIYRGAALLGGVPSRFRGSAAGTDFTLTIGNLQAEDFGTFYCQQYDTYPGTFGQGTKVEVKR")
0.2
>>> readout_value("8ANC3040 (antibody, V domains shown) VH: QIHLVQSGTEVKKPGSSVTVSCKAYGVNTFGLYAVNWVRQAPGQSLEYIGQIWRWKSSASHHFRGRVLISAVDLTGSSPPISSLEIKNLTSDDTAVYFCTTTSTYDQWSGLHHDGVMAFSSWGQGTLISVSA VL: DIQMTQSPSTLSASIGDTVRISCRASQSITGNWVAWYQQRPGKAPRLLIYRGAALLGGVPSRFSGSAAGTDFTLTIGNLQAEDFGTFYCQQYDTYPGTFGQGTKVEVKR")
0.617
>>> readout_value("8ANC195 IgG (antibody, V domains shown) VH: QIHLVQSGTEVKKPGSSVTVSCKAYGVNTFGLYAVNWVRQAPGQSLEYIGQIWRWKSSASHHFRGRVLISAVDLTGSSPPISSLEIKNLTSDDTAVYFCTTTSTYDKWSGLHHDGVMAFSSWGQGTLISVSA VL: DIQMTQSPSTLSASIGDTVRISCRASQSITGNWVAWYQQRPGKAPRLLIYRGAALLGGVPSRFSGSAAGTDFTLTIGNLQAEDFGTFYCQQYDTYPGTFGQGTKVEV")
0.79
>>> readout_value("γ23κ18 (antibody, V domains shown) VH: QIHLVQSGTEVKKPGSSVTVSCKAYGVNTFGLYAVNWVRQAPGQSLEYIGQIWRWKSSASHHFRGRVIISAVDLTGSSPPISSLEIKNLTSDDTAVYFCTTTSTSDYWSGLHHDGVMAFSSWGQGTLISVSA VL: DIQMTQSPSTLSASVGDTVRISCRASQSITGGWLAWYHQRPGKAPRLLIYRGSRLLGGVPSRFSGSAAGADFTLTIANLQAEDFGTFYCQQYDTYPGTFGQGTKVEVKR")
0.117
>>> readout_value("γ15κ3 (antibody, V domains shown) VH: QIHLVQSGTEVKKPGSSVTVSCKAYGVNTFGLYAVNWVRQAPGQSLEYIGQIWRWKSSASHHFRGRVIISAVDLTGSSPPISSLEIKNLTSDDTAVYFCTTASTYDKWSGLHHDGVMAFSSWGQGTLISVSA VL: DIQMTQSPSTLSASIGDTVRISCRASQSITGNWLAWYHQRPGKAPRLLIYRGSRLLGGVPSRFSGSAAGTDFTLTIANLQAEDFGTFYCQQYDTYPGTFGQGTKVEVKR")
1.07

Data provenance: patent US20180171001A1
